Tested on: Drosophila bursicon receptor LGR2 (rickets)
assay-name: inhibitors of bursicon-induced LGR2 CRE-luciferase signal, primary screen, cell-based, HEK293, CRE-luciferase reporter, bursicon stimulation (AID 720647);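 note: agonist challenge used bursicon conditioned medium at about half maximal strength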
assay-conditions: bursicon-stimulated, 4 h, at 9.99 µM, hits give high values
About 1,300 (0.34%) of roughly 380,000 compounds were called active. The list comes from a sample in which actives are over-represented; it also holds close analogues and randomly drawn compounds.
Record form. Attribute: inhibition. Fill in for each entry.
Quick reminder: number only, in %, skip the unit.

Q: Any idea what inhibition was measured for "CCCC(=O)N1CCC2(CC1)CN(C(=O)C1CCCCC1)[C@@H](CO)c1[nH]c3cc(OC)ccc3c12" ?
A: -2.6

Q: And what about the compound "C[C@@H]1CN([C@@H](C)CO)C(=O)c2cc(C3=CCCC3)cnc2O[C@H]1CN(C)C(=O)c1ccccn1" ?
A: -11.6

Q: What about this compound? "COc1ccc2c3c([nH]c2c1)[C@@H](CO)N(C(=O)Nc1ccc(F)cc1)CC31CN(S(C)(=O)=O)C1"
A: -10.4

Q: Same question for "O=C1CN(Cc2ccccc2)C[C@H]2[C@H](c3ccc(-c4ccccc4)cc3)[C@@H](CO)N12" please.
A: -6.09

Q: Continue with "COCC(=O)N1[C@H](CNC(=O)c2ccccn2)[C@H](c2ccccc2)[C@@H]1CO"
A: 0.589

Q: How about this compound: "N[C@@H](Cc1ccccc1)C(=O)N1CCOCC1"
A: -3.78

Q: Now try "COc1ccc2c3c(n(C)c2c1)[C@@H](CO)N(C(=O)c1ccccn1)CC31CN(C)C1" .
A: 2.95

Q: Follow-up item: "C[C@H](CO)N1C[C@H](C)[C@H](CN(C)Cc2ccncc2)Oc2ccc(NC(=O)C3CCCCC3)cc2CC1=O"
A: 10.2

Q: "N#C[C@@H]1[C@@H](c2ccc(C3=CCCCC3)cc2)[C@@H](CO)N1C(=O)c1cccc(F)c1" , same question.
A: 7.91

Q: // query: "CCC(=O)N1CC(=O)N2[C@@H](CO)[C@H](c3ccc(C#CC4CCCC4)cc3)[C@@H]2C1"
A: -13.8

Q: Try "CN1[C@H](C(=O)N2CCc3ccccc3C2)[C@@H](CO)[C@@H]2Cn3c(ccc(-c4cncnc4)c3=O)[C@@H]21" next.
A: 1.15

Q: Cool, now "CCCNC(=O)C[C@@H]1CC[C@H]2[C@H](COc3ccc(NC(=O)c4ccc(Cl)cc4)cc3C(=O)N2C)O1"
A: -13.7

Q: Same lookup for "CCc1nc2cccnc2n1-c1ccc(C(=O)O)cc1" , please.
A: -11.5

Q: // query: "COc1ccc2c3c(n(C)c2c1)[C@@H](CO)N(C(=O)Nc1ccc(F)cc1)CC31CN(C(=O)NC(C)C)C1"
A: -1.12

Q: Note, next up: O=C(O)CC(CC(=O)N1CCOCC1)c1ccccc1 (configuration not stated)
A: 7.83

Q: Same question, "Cc1noc(C)c1S(=O)(=O)N(C)C[C@@H]1Oc2ccc(NC(=O)Cn3cnnn3)cc2CC(=O)N([C@@H](C)CO)C[C@H]1C" this time
A: 0.447

Q: Query "C[C@H]1CN([C@@H](C)CO)S(=O)(=O)c2ccc(C#Cc3cccc(F)c3)cc2O[C@@H]1CN(C)S(=O)(=O)c1cn(C)cn1" next
A: 16.7
